Where do the numbers come from? From paper PMC6151569.

# Assay Comment: HLM stability test with LC-MS metabolite screening
# Format: in vitro ADME, human
# Experimental Parameters: HLM, 240 min
Readout Name: Degradation: compound remaining, AVERAGE (%)

molecule="CC(C)C(C)Nc1cc(-c2nc(SCCO)[nH]c2-c2ccc(F)cc2)ccn1 (stereo not shown) [LN950, reference compound]" val=28.49
molecule="CSc1nc(-c2ccnc(NC(C)c3ccccc3)c2)c(-c2ccc(F)cc2)[nH]1 (stereo not shown) [ML3403, reference compound]" val=16.25
molecule="CCc1nc(-c2ccc(F)cc2)c(-c2ccnc(NC(C)c3ccccc3)c2)[nH]1 (stereo not shown)" val=79.75
molecule="CC(C)C(C)Nc1cc(-c2[nH]c(CCCO)nc2-c2ccc(F)cc2)ccn1 (stereo not shown)" val=89.73

----------
# Assay Comment: HLM stability test with LC-MS metabolite screening
# Assay type: in vitro ADME, human
# Experimental Parameters: HLM, 180 min
Readout Name: Degradation: compound remaining, AVERAGE

compound="CC(C)C(C)Nc1cc(-c2[nH]c(CCCO)nc2-c2ccc(F)cc2)ccn1 (stereo not shown)" val=90.42%
compound="CSc1nc(-c2ccnc(NC(C)c3ccccc3)c2)c(-c2ccc(F)cc2)[nH]1 (stereo not shown) [ML3403, reference compound]" val=24.06%
compound="CC(C)C(C)Nc1cc(-c2nc(SCCO)[nH]c2-c2ccc(F)cc2)ccn1 (stereo not shown) [LN950, reference compound]" val=32.10%
compound="CCc1nc(-c2ccc(F)cc2)c(-c2ccnc(NC(C)c3ccccc3)c2)[nH]1 (stereo not shown)" val=80.90%

----------
# Test system: CYP1A2, CYP2C9, CYP2C19, CYP2D6 and CYP3A4
# Assay Comment: CYP inhibition screening, statements on the whole panel
# Type: in vitro ADME, human
# Experimental Parameters: human
Readout Name: inhibition at 10 µM

molecule="CC(C)C(C)Nc1cc(-c2[nH]c(CCCO)nc2-c2ccc(F)cc2)ccn1 (centres unmarked)" val="> 60%"
molecule="CCc1nc(-c2ccc(F)cc2)c(-c2ccnc(NC(C)c3ccccc3)c2)[nH]1 (centres unmarked)" val="> 70%"

----------
# Assay Comment: HLM stability test with LC-MS metabolite screening
# Type: in vitro ADME, human
# Experimental Parameters: HLM, 30 min
Readout Name: Degradation: compound remaining, AVERAGE (%)

compound="CSc1nc(-c2ccnc(NC(C)c3ccccc3)c2)c(-c2ccc(F)cc2)[nH]1 (stereo not shown) [ML3403, reference compound]" val=57.93
compound="CCc1nc(-c2ccc(F)cc2)c(-c2ccnc(NC(C)c3ccccc3)c2)[nH]1 (stereo not shown)" val=87.96
compound="CC(C)C(C)Nc1cc(-c2[nH]c(CCCO)nc2-c2ccc(F)cc2)ccn1 (stereo not shown)" val=91.84
compound="CC(C)C(C)Nc1cc(-c2nc(SCCO)[nH]c2-c2ccc(F)cc2)ccn1 (stereo not shown) [LN950, reference compound]" val=61.96

----------
# Assay Comment: HLM stability test with LC-MS metabolite screening
# Format: in vitro ADME, human
# Experimental Parameters: HLM, 60 min
Readout Name: Degradation: compound remaining, AVERAGE (%)

molecule="CSc1nc(-c2ccnc(NC(C)c3ccccc3)c2)c(-c2ccc(F)cc2)[nH]1 (stereo not shown) [ML3403, reference compound]" val=42.80
molecule="CC(C)C(C)Nc1cc(-c2nc(SCCO)[nH]c2-c2ccc(F)cc2)ccn1 (stereo not shown) [LN950, reference compound]" val=51.99
molecule="CCc1nc(-c2ccc(F)cc2)c(-c2ccnc(NC(C)c3ccccc3)c2)[nH]1 (stereo not shown)" val=86.27
molecule="CC(C)C(C)Nc1cc(-c2[nH]c(CCCO)nc2-c2ccc(F)cc2)ccn1 (stereo not shown)" val=91.99
